- ASSAY_SYSTEM: T1, TNFR1 (Homo sapiens, UniProt P19438)
- T1 chain: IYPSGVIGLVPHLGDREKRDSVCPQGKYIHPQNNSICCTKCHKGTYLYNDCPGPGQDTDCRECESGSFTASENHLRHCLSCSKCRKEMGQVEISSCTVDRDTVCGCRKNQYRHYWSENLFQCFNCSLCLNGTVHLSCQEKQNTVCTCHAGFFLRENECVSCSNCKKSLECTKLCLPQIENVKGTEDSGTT
- TEST_DESCRIPTION: yeast display SC50
REPORTED_PROPERTY: apparent Kd (screen) (nM)

I: K52Q (designed binder) SMEEEVEKAAKEYEKKKKEAIEKHLEKLKAKDKEAAERFLKELEEAAKEYAQDEAKTMSEEEAKRRAKKYKEKVLLSELSEEEQKEIKEAEEKLVRTILKYVEEAAK
II: L94D (designed binder) SMEEEVEKAAKEYEKKKKEAIEKHLEKLKAKDKEAAERFLKELEEAAKEYAKDEAKTMSEEEAKRRAKKYKEKVLLSELSEEEQKEIKEAEEKDVRTILKYVEEAAK
III: A55G (designed binder) SMEEEVEKAAKEYEKKKKEAIEKHLEKLKAKDKEAAERFLKELEEAAKEYAKDEGKTMSEEEAKRRAKKYKEKVLLSELSEEEQKEIKEAEEKLVRTILKYVEEAAK
Sort the entries above numerically by apparent Kd (screen), high end first. API: response body holds the labels in the requested order.
III, II, I

a: E86G (designed binder) SMEEEVEKAAKEYEKKKKEAIEKHLEKLKAKDKEAAERFLKELEEAAKEYAKDEAKTMSEEEAKRRAKKYKEKVLLSELSEEEQKGIKEAEEKLVRTILKYVEEAAK
b: A9P (designed binder) SMEEEVEKPAKEYEKKKKEAIEKHLEKLKAKDKEAAERFLKELEEAAKEYAKDEAKTMSEEEAKRRAKKYKEKVLLSELSEEEQKEIKEAEEKLVRTILKYVEEAAK
Quick one: lower apparent Kd (screen), a or b ? Output the label that corresponds to your choice.
a

A: K11Y (designed binder) SMEEEVEKAAYEYEKKKKEAIEKHLEKLKAKDKEAAERFLKELEEAAKEYAKDEAKTMSEEEAKRRAKKYKEKVLLSELSEEEQKEIKEAEEKLVRTILKYVEEAAK
B: A55P (designed binder) SMEEEVEKAAKEYEKKKKEAIEKHLEKLKAKDKEAAERFLKELEEAAKEYAKDEPKTMSEEEAKRRAKKYKEKVLLSELSEEEQKEIKEAEEKLVRTILKYVEEAAK
Quick one: lower apparent Kd (screen), A or B ? Output the label that corresponds to your choice.
A
